target: High affinity nerve growth factor receptor (Homo sapiens); assay: Inhibition of NGF-stimulated TrkA phosphorylation in NIH3T3 cells; format: cell-based
pIC50: −log10 of the molar value.
metric: pIC50

What value of measured pIC50 is listed for C[C@]1(O)C[C@H]2O[C@]1(C)n1c3ccccc3c3c4c(c5c6ccccc6n2c5c31)C(=O)NC4 ? > 8.00

----------
molecular target: High affinity nerve growth factor receptor (Homo sapiens, UniProt P04629); assay: Inhibition of baculovirus expressed human trkA
Sequence (P04629 whole entry): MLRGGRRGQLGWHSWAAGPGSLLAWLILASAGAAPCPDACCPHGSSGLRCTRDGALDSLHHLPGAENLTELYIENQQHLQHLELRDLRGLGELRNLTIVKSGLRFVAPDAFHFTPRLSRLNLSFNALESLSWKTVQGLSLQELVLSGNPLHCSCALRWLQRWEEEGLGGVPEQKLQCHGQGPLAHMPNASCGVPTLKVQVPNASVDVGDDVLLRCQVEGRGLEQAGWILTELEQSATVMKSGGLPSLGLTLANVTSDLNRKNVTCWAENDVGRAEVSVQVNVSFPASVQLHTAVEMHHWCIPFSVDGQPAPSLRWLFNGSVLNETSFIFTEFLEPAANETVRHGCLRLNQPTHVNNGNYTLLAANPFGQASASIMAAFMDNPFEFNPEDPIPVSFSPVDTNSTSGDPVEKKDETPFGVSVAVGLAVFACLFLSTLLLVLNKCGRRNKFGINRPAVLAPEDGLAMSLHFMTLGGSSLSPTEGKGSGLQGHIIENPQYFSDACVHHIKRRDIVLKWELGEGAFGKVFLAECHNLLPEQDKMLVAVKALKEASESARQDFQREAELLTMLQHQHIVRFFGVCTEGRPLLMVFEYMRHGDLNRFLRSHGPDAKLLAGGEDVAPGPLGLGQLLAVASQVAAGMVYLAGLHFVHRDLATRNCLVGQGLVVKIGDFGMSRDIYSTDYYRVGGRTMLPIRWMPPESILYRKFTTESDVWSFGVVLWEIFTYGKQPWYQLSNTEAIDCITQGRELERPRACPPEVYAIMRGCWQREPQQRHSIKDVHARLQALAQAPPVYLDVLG
metric: IC50
Give me the value, and tack the unit on after it.

Consider the following illustrative entries.
CO[C@]1(CO)C[C@H]2O[C@]1(C)n1c3ccccc3c3c4c(c5c6ccccc6n2c5c31)C(=O)NC4 :: 2.9 nM
CC1(C)O[C@@H](n2c3ccccc3c3c4c(c5c6ccccc6[nH]c5c32)CNC4=O)C[C@]1(O)CO :: 4 nM
C[C@]1(O)C[C@H]2O[C@]1(C)n1c3ccccc3c3c4c(c5c6ccccc6n2c5c31)C(=O)NC4 :: 3 nM
C[C@@]1(O)C[C@H]2O[C@]1(C)n1c3ccccc3c3c4c(c5c6ccccc6n2c5c31)C(=O)NC4 :: 20 nM
C[C@]12O[C@H](C[C@@]1(O)C(N)=O)n1c3ccccc3c3c4c(c5c6ccccc6n2c5c31)CNC4=O :: 29 nM

What does the data say about its IC50? Entry: CC1(C)O[C@@H](n2c3ccccc3c3c4c(c5c6ccccc6[nH]c5c32)CNC4=O)C[C@@]1(O)CO 4 nM

----------
Examples of compounds with documented IC50 follow.
assay: Inhibition of [gamma-32P]-ATP binding to protein kinase C (1.5 ng) done for 10 min in pH 7.4 at 37 degree C with compound dissolved in DMSO using in In-Plate assay
Record the value in µM, omitting the unit from your answer.

Below, each entry is followed by its recorded IC50 result.
C[C@]12O[C@H](C[C@@]1(O)C(N)=O)n1c3ccccc3c3c4c(c5c6ccccc6n2c5c31)CNC4=O :: 0.663
COC(=O)[C@]1(O)C[C@H]2O[C@]1(C)n1c3ccccc3c3c4c(c5c6ccccc6n2c5c31)C(=O)NC4 :: 0.114
CC1(C)O[C@@H](n2c3ccccc3c3c4c(c5c6ccccc6[nH]c5c32)CNC4=O)C[C@]1(O)CO :: 0.218
C[C@]1(O)C[C@H]2O[C@]1(C)n1c3ccccc3c3c4c(c5c6ccccc6n2c5c31)C(=O)NC4 :: 0.85
C[C@@]1(O)C[C@H]2O[C@]1(C)n1c3ccccc3c3c4c(c5c6ccccc6n2c5c31)C(=O)NC4 :: 0.31

Could you share which IC50 value was measured for COC(=O)[C@@]1(O)C[C@H]2O[C@]1(C)n1c3ccccc3c3c4c(c5c6ccccc6n2c5c31)C(=O)NC4 [K-252A] ? 0.25

IC50 for CC1(C)O[C@@H](n2c3ccccc3c3c4c(c5c6ccccc6[nH]c5c32)CNC4=O)C[C@@]1(O)CO ? 0.079

Return reported IC50; argument: CO[C@]1(CO)C[C@H]2O[C@]1(C)n1c3ccccc3c3c4c(c5c6ccccc6n2c5c31)C(=O)NC4 0.114
